meta.source: PubChem BioAssay

Assay: basal RPMI8226 mitochondrial membrane potential changes, profiling panel, cell-based, JC-1 fluorescence, 24 h, 100 nL compound (AID 1169); also: test concentration not given here
Settings: RPMI8226 myeloma, JC-1 mitochondrial potential fluorescence, higher = more signal
reported_endpoint: z-score
API note: the answer field is a bare number with no unit suffix.

compound=O=C1[C@H]2[C@H]3[C@H](O)[C@H](O)CC(=NO[C@@H]4O[C@H](CO)[C@@H](O)[C@H](O)[C@H]4O)[C@@H]3CC[C@H]2C(=O)N1Cc1ccccc1 reported_endpoint=z-score test_value=-0.61
compound=COC(=O)[C@@H]1N=C(c2ccc(OCCCO)cc2)O[C@@H]1c1ccccc1N=[N+]=[N-] reported_endpoint=z-score test_value=-0.287
compound=O=C1[C@H]2[C@H]3[C@H](O)[C@H](O)CC(=NOCc4ccccc4)[C@H]3CC[C@H]2C(=O)N1c1ccc(F)cc1F reported_endpoint=z-score test_value=0.305
compound="Cc1cc2c(nc1C)CCCN2CC(O)CN1CCN(C)CC1 (stereo not drawn)" reported_endpoint=z-score test_value=0.142
compound=C=CC[C@@H]1C=C[C@H](ON=C2c3cc(OC)ccc3O[C@H](c3cccc(OC)c3)[C@H]2O)[C@@H](CO)O1 reported_endpoint=z-score test_value=-0.148
compound=O=C1[C@H]2[C@H]3[C@H](O)[C@H](O)CC(=NO[C@@H]4O[C@H](CO)[C@@H](O)[C@H](O)[C@H]4O)[C@H]3CC[C@H]2C(=O)N1Cc1ccc2c(c1)OCO2 reported_endpoint=z-score test_value=-0.0781
compound=COc1ccc([Si](C)(C)[C@@H]2[C@@H](CCO)O[C@]3(C(=O)N(Cc4ccc(NC(C)=O)cc4)c4ccccc43)[C@H]2C)cc1 reported_endpoint=z-score test_value=-1.18
compound=COc1ccccc1CN1C(=O)c2ccccc2[C@@H](C(=O)NCC(F)(F)F)[C@@H]1c1ccc(CO)cc1 reported_endpoint=z-score test_value=0.28
compound="CN(C)c1ccc(C(O)C2C=CC3C(=O)N(c4ccccc4)C(=O)C3N2Nc2ccccc2F)cc1 (stereo not drawn)" reported_endpoint=z-score test_value=0.109
compound=CO[C@@H]1COC(=O)[C@H](C)NC(=O)[C@@H](C)COC(=O)CCC[C@H]1C reported_endpoint=z-score test_value=0.706

What value of z-score has been reported for the following compound? COc1ccc(CCNC(=O)[C@@H]2c3ccccc3C(=O)N(c3ccc(C)cn3)[C@H]2c2ccc(CO)cc2)cc1 0.671

Need z-score, item COC(=O)[C@H](C)NC(=O)CCC1CC(OC(=O)NCc2cccc3ccccc23)CC2(CCCC(COC(=O)NCCc3ccc(Cl)cc3)O2)O1 (stereo partly drawn) -0.318

Record request: z-score value, item C[C@@H]1CC[C@H]2C(=O)O[C@H](COc3ccc(C(C)(C)C)cc3)CN2[C@H]1c1ccc(Br)cc1 -0.132

// query z-score value for entry COC(=O)CC1OC1[C@H](C)[C@@H](OC)C(C)C (stereo partly drawn) 0.666

Report z-score for COCCOC(=O)N1C(=O)[C@@]2(c3cc(C#CCNC(N)=O)ccc31)[C@H](c1ccc(O)cc1)N1[C@H](c3ccccc3)[C@H](c3ccccc3)OC(=O)[C@H]1[C@@H]2C(=O)N1CCCCCCC1 please. 0.399

I'd like to know its z-score. The compound in question is CC(CCN1CCc2nc(-c3ccccc3)c(-c3ccccc3)cc2C1)=NO[C@@H](C)c1cn([C@H](CO)Cc2ccccc2)nn1 0.555

I'd like to know its z-score. The compound in question is CO[C@@H]1COC(=O)CC=C[C@@H](C)[C@@H]2C=C[C@H](O)[C@@H](COC(=O)[C@H](C)NC(=O)CC=C[C@H]1C)O2 0.583

Returns the measured z-score for the input compound. Input: COc1ccc(O[C@@H]2[C@H](O)CO[C@H]2C=CC#Cc2ccccc2)cc1 0.617

Give the measured z-score of CCCC[C@@H](O)C1=C(C)C[C@H]2C(=O)N(Cc3ccccc3)C(=O)[C@H]2[C@H]1CO . -0.0812

Entry under review: NCCCCCNC(=O)[C@@H]1C[C@@H]2C(=O)N3CCC[C@H]3C(=O)N2[C@@H]1c1cccc(OCCO)c1 . Reported z-score? 0.167

Give its z-score value. Item: CC(C)=CCCC(C)=CCON=C1[C@H]2CCn3c(=O)n(C)c(=O)n3[C@H]2[C@H](O)[C@@H]2O[C@H]12 -0.2

Which z-score reading was recorded for the compound COCCOC(=O)N1C(=O)[C@@]2(c3cc(C#CC4(O)CCCCCC4)ccc31)[C@H](C(=O)N1CCN(c3ncccn3)CC1)[C@H]1C(=O)O[C@H](c3ccccc3)[C@H](c3ccccc3)N1[C@@H]2c1ccc(OCCO)cc1 ? -0.479

What value of z-score has been reported for the following compound? O=C1C2C=CC(C(O)c3ccc([N+](=O)[O-])cc3)N(Nc3ccc([N+](=O)[O-])cc3)C2C(=O)N1c1ccccc1 (stereo not drawn) -1.01
